Test Target: 5-HT-1A serotonin receptor (Rattus norvegicus, UniProt P19327)
Construct: Hippocampal tissue is dissected and homogenized on ice in 40 vols of buffer; from tissue; host or cells: rat hippocampus, washed membrane homogenate
Sequence (P19327 whole entry): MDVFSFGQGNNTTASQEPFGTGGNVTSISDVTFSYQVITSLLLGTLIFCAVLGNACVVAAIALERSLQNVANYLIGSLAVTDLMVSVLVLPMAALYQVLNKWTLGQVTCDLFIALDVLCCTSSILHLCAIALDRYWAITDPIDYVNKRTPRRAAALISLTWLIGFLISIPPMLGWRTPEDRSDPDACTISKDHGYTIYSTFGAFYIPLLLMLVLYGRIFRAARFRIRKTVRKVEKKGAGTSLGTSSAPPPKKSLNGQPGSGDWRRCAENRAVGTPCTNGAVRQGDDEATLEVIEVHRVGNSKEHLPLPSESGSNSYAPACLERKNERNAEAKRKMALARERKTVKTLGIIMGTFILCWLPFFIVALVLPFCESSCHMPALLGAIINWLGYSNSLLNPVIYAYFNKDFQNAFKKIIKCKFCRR
Procedure Details: ex vivo inhibition of 5-HT-1A serotonin receptor binding (3H-8-OH-DPAT, hippocampal membranes)
Structures can show the parent of a compound that is named as a salt.
Assay Readout: Ki (nM)
Could you give me the number in nM? Just the number is fine.

Answer with the recorded Ki for the compound listed here: O=C1N(CCCCN2CCN(c3cnccn3)CC2)C(=O)C23C4C=CC(C4)C12C1C=CC3C1 (stereo not shown) [Example 3, dihydrochloride, sesquihydrate]
12
